# ASSAYED TARGET: Retinoic acid receptor alpha (Homo sapiens) (UniProt P10276)
# Sequence (P10276 whole entry, looked up): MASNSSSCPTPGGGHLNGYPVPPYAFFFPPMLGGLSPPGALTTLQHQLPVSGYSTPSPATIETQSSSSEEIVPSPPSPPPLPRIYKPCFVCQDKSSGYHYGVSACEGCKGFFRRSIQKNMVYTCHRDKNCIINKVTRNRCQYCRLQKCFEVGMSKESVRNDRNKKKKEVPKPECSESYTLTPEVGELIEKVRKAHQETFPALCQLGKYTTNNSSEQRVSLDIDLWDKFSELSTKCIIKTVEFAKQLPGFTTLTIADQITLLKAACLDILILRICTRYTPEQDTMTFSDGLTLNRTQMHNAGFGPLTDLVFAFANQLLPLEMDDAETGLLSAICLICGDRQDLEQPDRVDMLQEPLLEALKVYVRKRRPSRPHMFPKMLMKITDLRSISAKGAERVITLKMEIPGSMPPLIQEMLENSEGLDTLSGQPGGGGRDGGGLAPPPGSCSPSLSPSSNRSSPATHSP
# ASSAY OVERVIEW: ATG_DR5_RAR_CIS: Attagene CIS-FACTORIAL HepG2 Assay for human Retinoic Acid Receptor Alpha (RARE), DR5 submotif (AID 2282934)
# EXPERIMENTAL CONDITIONS: HepG2 Attagene cis-factorial RARE DR5 reporter, mRNA; actives raise or lower the signal
The source made the active and inactive calls. Rule for the calls: active = hit-call score of the fitted dose curve at least 0.9, where 1 is the maximum; inactive = score below 0.9.
Possible outcomes: active, inactive

COMPOUND | GROUP LABEL
OCC(O)CC(F)(F)C(F)(F)C(F)(F)C(F)(F)C(F)(F)C(F)(F)C(F)(F)C(F)(F)F (stereo not given) | inactive
COC(=O)c1ccc(C=O)cc1 | inactive
CCCCCCCCCCCC(=O)Cl | active
C=C(C)C(=O)OCC(F)(F)C(F)(F)C(F)(F)C(F)F | inactive
Nc1cc([N+](=O)[O-])cc(Cl)c1O | inactive
O=C1OC(=O)c2ccc3c4c(ccc1c24)C(=O)OC3=O | inactive
CC(O)C#CC(C)O (stereo not given) | inactive
O=C1C=CC(=O)N1c1ccccc1 | inactive
OCC(F)(F)C(F)(F)C(F)(F)C(F)(F)C(F)(F)C(F)(F)C(F)(F)C(F)(F)CO | inactive
OCCCc1cccnc1 | inactive
CN(C(=O)C(F)(F)C(F)(F)C(F)(F)F)[Si](C)(C)C | inactive
O=C(c1ccccc1)c1ccc(Cl)cc1 | inactive
C[C@]12CC[C@H]3C(=CCc4cc(O)ccc43)[C@@H]1CCC2=O | inactive
Cc1ccc(O)c(-n2nc3ccccc3n2)c1 | inactive
CCC/C=C/CO | inactive
COCCOCCC[Si](C)(O[Si](C)(C)C)O[Si](C)(C)C | active
FC(F)(F)C(F)(F)C(F)(F)C(F)(F)C(F)(F)C(F)(F)CC[Si](Cl)(Cl)Cl | inactive
CCc1cccc(C)c1N(C(=O)C(=O)O)C(C)COC (stereo not given) | inactive
CCCCCCCCCc1ccc(OCCO)cc1 | inactive
CNS(=O)(=O)C(F)(F)C(F)(F)C(F)(F)C(F)(F)C(F)(F)C(F)(F)C(F)(F)C(F)(F)F | inactive
CC(C)(C)c1cc(CCC(=O)NCCCCCCNC(=O)CCc2cc(C(C)(C)C)c(O)c(C(C)(C)C)c2)cc(C(C)(C)C)c1O | inactive
O=C=Nc1cccc2c(N=C=O)cccc12 | inactive
CC(C)(C)C(=O)C1C(=O)c2ccccc2C1=O | active
O=C1c2ccccc2C(=O)c2c(Cl)cccc21 | inactive
NS(=O)(=O)C(F)(F)C(F)(F)C(F)(F)C(F)(F)C(F)(F)C(F)(F)F | inactive
